FYI, the data here is from patent US9382208B1.

# tgt: rat mGlu2 (Rattus norvegicus, UniProt P31421)
# Construct: expressed in transfected cells
# Sequence (P31421 19-872): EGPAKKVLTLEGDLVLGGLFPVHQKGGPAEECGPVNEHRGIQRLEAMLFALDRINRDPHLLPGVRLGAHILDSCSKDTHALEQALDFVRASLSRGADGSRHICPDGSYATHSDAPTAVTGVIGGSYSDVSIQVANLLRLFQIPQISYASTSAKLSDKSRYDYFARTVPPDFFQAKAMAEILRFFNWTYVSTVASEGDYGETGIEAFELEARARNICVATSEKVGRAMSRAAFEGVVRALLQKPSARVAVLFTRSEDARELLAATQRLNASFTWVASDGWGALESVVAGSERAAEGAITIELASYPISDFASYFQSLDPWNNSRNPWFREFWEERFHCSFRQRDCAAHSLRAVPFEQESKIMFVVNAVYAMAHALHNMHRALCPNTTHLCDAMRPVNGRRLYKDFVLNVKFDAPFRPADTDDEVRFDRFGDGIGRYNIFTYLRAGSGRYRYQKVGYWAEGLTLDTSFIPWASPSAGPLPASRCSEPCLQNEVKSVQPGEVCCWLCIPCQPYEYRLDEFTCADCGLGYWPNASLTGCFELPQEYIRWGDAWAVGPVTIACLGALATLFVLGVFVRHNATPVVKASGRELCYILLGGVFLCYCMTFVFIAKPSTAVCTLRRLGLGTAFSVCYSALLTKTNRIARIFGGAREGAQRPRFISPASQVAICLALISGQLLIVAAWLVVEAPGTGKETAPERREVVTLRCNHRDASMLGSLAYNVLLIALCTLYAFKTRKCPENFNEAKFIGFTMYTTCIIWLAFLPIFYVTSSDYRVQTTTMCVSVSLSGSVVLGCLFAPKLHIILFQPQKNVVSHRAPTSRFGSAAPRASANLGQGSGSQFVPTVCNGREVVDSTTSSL
# testDetails: mGlu2 Ca2+ flux assay
# Type: cell-based
# cond: amplitude of response in the presence of 30 μM test compound as percentage of maximal response to glutamate; read-out: rat mGlu2 Glu max (%)
Note to self: remaining activity at 30 µM under 1% means label 1, ties and anything higher get label 0.

>>> categorylabel("NC(=O)c1cn(-c2ccc(F)cc2)c2ccc(CN3CCCOCC3)cc2c1=O")
"label 0"
>>> categorylabel("NC(=O)c1cn(-c2ccc(F)cc2)c2ccc(NCCc3cccnc3)cc2c1=O")
"label 0"
>>> categorylabel("NC(=O)c1cn(-c2ccc(F)cc2)c2ccc(COc3cccnc3F)cc2c1=O")
"label 1"

A record lists Cc1ccccc1CCc1ccc2c(c1)c(=O)c(C(N)=O)cn2-c1ccc(F)cc1 . Is its remaining activity at 30 µM below 1%?
label 0

Is remaining activity at 30 µM of NC(=O)c1cn(-c2ccc(F)cc2)c2ccc(CCc3ccnc(C(F)(F)F)c3)cc2c1=O strictly below 1%?
label 1
